Entries and their phenotypically active values follow.
- System: HepG2-ACTB-RAB5A
- Measurement Notes: phenotypically active (imaging signature differs from DMSO and reproducible) at any of 0.3-9 uM (binary (1 = active, 0 = inactive)); higher = active
- Condition Parameters: treatment time: 24 h
Please state the value as a number alone, without comment.

Worked cases, phenotypically active given:
>>> value("O=c1cc(-c2ccccc2)oc2cc(O)cc(O)c12")
0
>>> value("CCCOc1ccc(CCc2nc3cc(-c4c(C)noc4C)ccc3n2CCN2CCOCC2)cc1")
1
>>> value("O=c1c(O)c(-c2ccc(O)c(O)c2)oc2cc(O)cc(O)c12")
0

// below: phenotypically active requested for another compound
Item: COc1ccc([C@@H]2CC(=O)c3c(O)cc(O[C@@H]4O[C@H](CO[C@@H]5O[C@@H](C)[C@H](O)[C@@H](O)[C@H]5O)[C@@H](O)[C@H](O)[C@H]4O)cc3O2)cc1O | phenotypically active: 0

====

- Tested on: WPMY1-TP53BP1-CLTA
- Measurement Notes: lowest phenotypically active concentration; higher = less potent
- Condition Parameters: treatment time: 24 h
Where a name gives a salt, the structure may show the parent alone.
# lowest phenotypically active concentration values compiled below
All answers are understood in µM, so give the number only.

Record excerpt, results attached:
>>> value("CCc1cc(-c2n[nH]c(C)c2-c2ccc3c(c2)OCCO3)c(O)cc1O")
3
>>> value("NC1(C(=O)N[C@@H](CCO)c2ccc(Cl)cc2)CCN(c2ncnc3[nH]ccc23)CC1")
1
>>> value("CCSc1ccc2c(c1)N(CCCN1CCN(C)CC1)c1ccccc1S2 [thiethylperazine]")
9
>>> value("COc1cc(/C=C/C(=O)N2CCC=CC2=O)cc(OC)c1OC [Piperlongumine]")
9
>>> value("CCCC1(CCC)CCC2(CCN(CCCN(CC)CC)C2)CC1 [Atiprimod dihydrochloride]")
1

# lowest phenotypically active concentration of CCCCc1oc2ccccc2c1C(=O)c1cc(I)c(OCCN(CC)CC)c(I)c1 [amiodarone] = 9

lowest phenotypically active concentration recorded for this compound, NC(=O)C(c1ccccc1)(c1ccccc1)[C@@H]1CCN(CCc2ccc3c(c2)CCO3)C1 [darifenacin] , is 9

# lowest phenotypically active concentration (compound: OCc1cc(C(O)CNCCCCCCOCCCCc2ccccc2)ccc1O (centres undefined) [salmeterol] ) is 9

====

Below, each entry is listed alongside its reported phenotypically active.
- Test system: A549-TUBA1B-RELA
- Measurement Notes: phenotypically active (imaging signature differs from DMSO and reproducible) at any of 0.3-9 uM (binary (1 = active, 0 = inactive)); higher = active
- Condition Parameters: treatment time: 24 h
Note: the reply should be a number with no unit written.

>>> value("CN(C)c1ccc(C(=O)NCCCCCCC(=O)NO)cc1")
1

Reported phenotypically active for O=S(=O)(N[C@H](CO)C(C(F)(F)F)C(F)(F)F)c1ccc(Cl)s1 was 0

The recorded phenotypically active for entry Nc1ncnc2c1ncn2[C@@H]1O[C@H](CO)C[C@H]1O [Cordycepin] equals 0

Query O=C(O)c1ccc(O)c2ncccc12 yields phenotypically active of 0

Value of phenotypically active reported for the compound CCn1c(=O)n([C@H]2CCCN(c3nccc(-c4cc5ccccc5o4)n3)C2)c2ccccc21 is 1

The compound listed as O=C(Nc1ccc(-c2ccnc(Nc3ccc(N4CCOCC4)cc3)n2)cc1)[C@@H]1CCCN1 has a reported phenotypically active of 1

Entry under test: CCCc1nc(C)c2c(C)nc3ccc(OC)nc3n12 . Its phenotypically active was 0
